# Assay text: Plasma pharmacokinetics in patients
# Type: in vivo, human
# Conditions: human, plasma, intravenous, 8 mg/m^2/hr
Measured metric: Cmax (nM)
Please state the figure in nM; there is no need to write the unit.

Cmax measured on Cc1cc(Nc2cc(N3CCN(C)CC3)nc(Sc3ccc(NC(=O)C4CC4)cc3)n2)[nH]n1 [MK-0457] = 274

---

# Assay text: Plasma pharmacokinetics in patients
# Assay type: in vivo, human
# Conditions: human, plasma, intravenous, 96 mg/m^2/hr
Measured metric: Cmax (µM)
Please state the figure in µM; there is no need to write the unit.

Cmax measured on Cc1cc(Nc2cc(N3CCN(C)CC3)nc(Sc3ccc(NC(=O)C4CC4)cc3)n2)[nH]n1 [MK-0457] = 7.63
